Where these numbers come from: the supplement of paper PMC11208160

- runDescription: recombinant barcode read abundance after kanamycin selection (control-corrected) (log10(CPM+1)); higher = more efficient recombination; sequences stand for … in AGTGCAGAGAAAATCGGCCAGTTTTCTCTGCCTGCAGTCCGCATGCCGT…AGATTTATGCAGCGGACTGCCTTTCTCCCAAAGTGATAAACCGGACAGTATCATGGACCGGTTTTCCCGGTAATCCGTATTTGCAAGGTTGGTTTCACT; site = the 11-nt target;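 also: IS621 recombinase and bridge RNA in Escherichia coli cells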
Response field class: string, computed from recorded recombinant barcode read abundance (log10) by ranges lo = under 0.2, mid = from 0.2 up to 0.4, hi = 0.4 and over

Use these answered entries as a reference point.
seq	className
TGCCTATCTTGGGTTCTAACCTGTTGCTT (site ATGTCTACTCT)	mid
GCTCCTACTTGGGTTCTAACCTGTTGCCT (site GCTCCTACTAG)	lo
CGAATCCCTTGGGTTCTAACCTGTTGCCG (site CGAACCTCTCG)	lo
TTGCCTTCTTGGGTTCTAACCTGTTGCCT (site TGGCCTTCTAG)	hi

Please indicate the class for GTAGTAGCTTGGGTTCTAACCTGTTGCCT (site GTAGTAACTAG) based on its recombinant barcode read abundance (log10).
hi
